assay: MTS viability / hepatocyte toxicity assay; assay type: cell-based; settings: human
quantity_measured: CC50 (µM)

| compound | numeric_result |
| --- | --- |
| CSc1ccc2c(c1)C(N1CCN(C)CC1)Cc1ccccc1S2 (stereo not shown) [Ligand 281816] | 14 |

###

biological target: recombinant E2 protein (Hepatitis C virus genotype 1b, UniProt Q9WMX2); construct: encoding amino acids 384-656 of the Con1 envelope protein 2 ectodomain (eE2); made in house; host or cells: HEK293T cells (lentiviral, secreted); assay: Surface plasmon resonance (Biacore T100) binding to recombinant E2 immobilized on CM5 chip; settings: response remaining 10 sec after rinsing with buffer
Sequence (Q9WMX2 384-656): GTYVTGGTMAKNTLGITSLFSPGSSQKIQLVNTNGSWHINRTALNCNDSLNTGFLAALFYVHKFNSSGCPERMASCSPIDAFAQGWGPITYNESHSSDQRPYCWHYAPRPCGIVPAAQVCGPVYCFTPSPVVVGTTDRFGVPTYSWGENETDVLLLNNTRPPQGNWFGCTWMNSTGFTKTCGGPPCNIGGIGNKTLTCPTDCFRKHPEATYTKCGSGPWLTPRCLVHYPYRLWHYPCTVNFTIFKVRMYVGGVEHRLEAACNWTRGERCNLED
// NB: equality with 3 RU counts as NOT MET; only Dissociation 1 (RU) strictly below is MET

| molecule | label_class |
| --- | --- |
| CCCc1nc(NC(=O)c2ccccc2)nc(NC(=O)c2ccccc2)n1 [Ligand 359472] | MET |
| CC1(C)N=C(N)N=C(N)N1c1ccc(OCCCOc2ccccc2)c(Cl)c1 [Ligand 133071] | MET |
| NC1=Nc2ccccc2C(=O)[N+]1=C(N)N [Ligand 403379] | MET |
| O=[N+]([O-])c1cc([N+](=O)[O-])c2cccnc2c1O [Ligand 57103] | NOT MET |
| Nc1nc(N)nc(-c2ccccc2-c2nc(N)nc(N)n2)n1 [Ligand 4429] | NOT MET |
| C[C@]12CC[C@@H]3c4ccc(OCC(=O)O)cc4CC[C@H]3[C@@H]1CCC2=O [Ligand 86467] | MET |
| O=C(Nc1cccc([N+](=O)[O-])c1)c1cccc(C(=O)Nc2cccc([N+](=O)[O-])c2)c1 [Ligand 204232] | MET |

###

molecular target: recombinant E2 protein (Hepatitis C virus genotype 1b); construct: encoding amino acids 384-656 of the Con1 envelope protein 2 ectodomain (eE2); made in house; host or cells: HEK293T cells (lentiviral, secreted); assay: Surface plasmon resonance (Biacore T100) binding to recombinant E2 immobilized on CM5 chip; details: 200 μM ligand in PBS, 3 min association
just bin them by Binding (RU): group A: < 60 RU; group B: ≥ 60 RU and < 90 RU; group C: ≥ 90 RU

| compound | label_class |
| --- | --- |
| NC(=O)C(=Cc1ccncc1)c1cccc2ccccc12 (stereo in doubt) | group C |
| O=C1CCCc2cc3c(cc21)CC1(C3)Cc2cc3c(cc2C1)C(=O)CCC3 | group A |
| O=[N+]([O-])c1cc([N+](=O)[O-])c2cccnc2c1O | group B |
| O=C(Nc1cccc([N+](=O)[O-])c1)c1cccc(C(=O)Nc2cccc([N+](=O)[O-])c2)c1 | group B |
| Cc1nc(/N=C(\N)N(C)C)[nH]c(=O)c1C | group C |
| Nc1nc(N)nc(-c2ccccc2-c2nc(N)nc(N)n2)n1 | group C |
| CC12CCC3C(CCC4Cc5[nH]c6ccccc6c5CC43C)C1CCC2O (centres unmarked) | group B |
| CC1(C)N=C(N)N=C(N)N1c1ccc(OCCCOc2ccccc2)c(Cl)c1 | group C |
| C[C@]12CC[C@@H]3c4ccc(OCC(=O)O)cc4CC[C@H]3[C@@H]1CCC2=O | group A |
| COc1ccc(C2=C[C@@H](c3ccc(OC)c(OC)c3)c3c(c4ccccc4oc3=O)O2)cc1OC | group C |
| Cc1cc(-c2ccc(N3C(=O)CC4(CCCC4)C3=O)c(C)c2)ccc1N1C(=O)CC2(CCCC2)C1=O | group B |
| Cc1ccc([N+](=O)[O-])cc1NC(=O)Nc1ccc(S(N)(=O)=O)cc1 | group B |
| O=S(=O)(F)c1ccc2nc(-c3cccc(Sc4ccccc4)c3)cc(Cl)c2c1 | group B |
| C1C[C@H]2NCC[C@@H]3NCC[C@H](N1)N32 | group A |
| Cc1ccc([N+](=O)[O-])cc1NC(=O)Nc1onc(C)c1C | group B |

###

Target: recombinant E2 protein (Hepatitis C virus genotype 1b)
Construct: encoding amino acids 384-656 of the Con1 envelope protein 2 ectodomain (eE2); made in house; host or cells: HEK293T cells (lentiviral, secreted)
Experiment: Surface plasmon resonance (Biacore T100) binding to recombinant E2 immobilized on CM5 chip
Conditions: response remaining 50 sec after rinsing with buffer
Excerpt: A construct containing the sequence encoding amino acids 384-656 of the Con1 envelope protein 2 ectodomain (eE2), a genoptype 1 E2 sequence, was cloned into a lentiviral expression vector with a carboxy-terminal Protein A tag separated by a PreScission Protease cleavage consensus sequence. eE2-ProtA was stably expressed in HEK293T cells using lentiviral infection. […]
// NB: equality with 2 RU counts as 0; only Dissociation 2 (RU) strictly below is 1

| compound | label_class |
| --- | --- |
| C1C[C@H]2NCC[C@@H]3NCC[C@H](N1)N32 [Ligand 81462] | 0 |
| NC(=O)C(=Cc1ccncc1)c1cccc2ccccc12 (stereo in doubt) [Ligand 144694] | 0 |
| CSc1ccc2c(c1)C(N1CCN(C)CC1)Cc1ccccc1S2 (centres unmarked) [Ligand 281816] | 1 |
| Cc1cc(-c2ccc(N3C(=O)CC4(CCCC4)C3=O)c(C)c2)ccc1N1C(=O)CC2(CCCC2)C1=O [Ligand 308835] | 0 |
| O=[N+]([O-])c1cc([N+](=O)[O-])c2cccnc2c1O [Ligand 57103] | 0 |
| O=C(Nc1cccc([N+](=O)[O-])c1)c1cccc(C(=O)Nc2cccc([N+](=O)[O-])c2)c1 [Ligand 204232] | 1 |
| COc1ccc(C2=C[C@@H](c3ccc(OC)c(OC)c3)c3c(c4ccccc4oc3=O)O2)cc1OC [Ligand 211490] | 0 |
| CC12CCC3C(CCC4Cc5[nH]c6ccccc6c5CC43C)C1CCC2O (centres unmarked) [Ligand 60785] | 1 |

###

molecular target: recombinant E2 protein (Hepatitis C virus genotype 1b); construct: encoding amino acids 384-656 of the Con1 envelope protein 2 ectodomain (eE2); made in house; host or cells: HEK293T cells (lentiviral, secreted); assay: Surface plasmon resonance (Biacore T100) binding to recombinant E2 immobilized on CM5 chip; conditions: response remaining 50 sec after rinsing with buffer
just bin them by Dissociation 2 (RU): one (below 0.8 RU), two (0.8 RU to below 2 RU), three (2 RU or more)

| molecule | label_class |
| --- | --- |
| NC1=N[C@@H](c2ccc(Cl)cc2)N(c2ccc(S(N)(=O)=O)cc2)C(N)=N1 [Ligand 117268] | two |
| O=C1CCCc2cc3c(cc21)CC1(C3)Cc2cc3c(cc2C1)C(=O)CCC3 [Ligand 670283] | two |
| CC1(C)N=C(N)N=C(N)N1c1ccc(OCCCOc2ccccc2)c(Cl)c1 [Ligand 133071] | one |
| NC1=Nc2ccccc2C(=O)[N+]1=C(N)N [Ligand 403379] | two |
| Cc1nc(/N=C(\N)N(C)C)[nH]c(=O)c1C [Ligand 113486] | three |
| NC1=N/C(=N\c2ccccc2)N[C@H](c2ccccc2)N1 [Ligand 3076] | two |
| Nc1nc(N)nc(-c2ccccc2-c2nc(N)nc(N)n2)n1 [Ligand 4429] | three |
| CC[C@@]1(O)C(=O)OCc2c1cc1n(c2=O)Cc2cc3c(NC(=O)CN)cccc3nc2-1.Cl [Ligand 639174] | one |
| O=S(=O)(F)c1ccc2nc(-c3cccc(Sc4ccccc4)c3)cc(Cl)c2c1 [Ligand 158413] | three |
| O=C(O)C[C@H]1OCC=C2CN3CC[C@]45c6ccccc6N[C@H]4[C@H]1[C@H]2C[C@H]35 [Ligand 121861] | three |
| c1ccc(-c2ccc3c(c2)N[C@H]([C@H]2Nc4cc(-c5ccccc5)ccc4O2)O3)cc1 [Ligand 84100] | three |

###

target: recombinant E2 protein (Hepatitis C virus genotype 1b, UniProt Q9WMX2); construct: encoding amino acids 384-656 of the Con1 envelope protein 2 ectodomain (eE2); made in house; host or cells: HEK293T cells (lentiviral, secreted); test: Surface plasmon resonance (Biacore T100) binding to recombinant E2 immobilized on CM5 chip; conditions: 200 μM ligand in PBS, 3 min association
Parameter: Binding (RU). Scope: all listed entries.
quantity_measured: Binding (RU)

| molecule | result_units | numeric_result |
| --- | --- | --- |
| NC1=Nc2ccccc2C(=O)[N+]1=C(N)N | RU | 58 |
| CSc1ccc2c(c1)C(N1CCN(C)CC1)Cc1ccccc1S2 (stereo not drawn) | RU | 64.5 |
| CC[C@@]1(O)C(=O)OCc2c1cc1n(c2=O)Cc2cc3c(NC(=O)CN)cccc3nc2-1.Cl | RU | 55.4 |
| c1ccc(-c2ccc3c(c2)N[C@H]([C@H]2Nc4cc(-c5ccccc5)ccc4O2)O3)cc1 | RU | 71.2 |
| NC1=N/C(=N\c2ccccc2)N[C@H](c2ccccc2)N1 | RU | 92.2 |
| CCCc1nc(NC(=O)c2ccccc2)nc(NC(=O)c2ccccc2)n1 | RU | 62 |
